PROTOCOL SUMMARY: clinical
CONDITION SUMMARY: male, human, in vivo, po, 175 mg, AUC0-inf
ENDPOINT NAME: AUC0-inf (ng·h/mL)

{"QUERY SMILES": "COc1cc2nccc(Oc3ccc(NC(=O)C4(C(=O)Nc5ccc(F)cc5)CC4)cc3)c2cc1OC", "ENDPOINT NAME": "AUC0-inf", "REPORTED": 73100}

###

PROTOCOL SUMMARY: clinical
CONDITION SUMMARY: human, in vivo
Structures can show the parent of a compound that is named as a salt.

{"COMPOUND": "COc1cc2nccc(Oc3ccc(NC(=O)C4(C(=O)O)CC4)cc3)c2cc1OS(=O)(=O)O [6-Demethyl Half-Dimer Sulfate]", "UNIT OF MEASURE": "h · ngEq/mL", "AUC0-t": 89000}
{"COMPOUND": "COc1cc2nccc(Oc3ccc(NC(=O)C4(C(=O)O)CC4)cc3)c2cc1OC", "UNIT OF MEASURE": "h · ngEq/mL", "AUC0-t": 11100}
{"COMPOUND": "COc1cc2nccc(Oc3ccc(NC(=O)C4(C(=O)Nc5ccc(F)cc5)CC4)cc3)c2cc1OC", "UNIT OF MEASURE": "h · ngEq/mL", "AUC0-t": 38100}
{"COMPOUND": "COc1cc2c(Oc3ccc(NC(=O)C4(C(=O)Nc5ccc(F)cc5)CC4)cc3)cc[n+]([O-])c2cc1OC [XL184-N-Oxide]", "UNIT OF MEASURE": "h · ngEq/mL", "AUC0-t": 13300}

###

PROTOCOL SUMMARY: Plasma pharmacokinetics of XL184 and metabolites by radio-quantitative method
CONDITION SUMMARY: human, in vivo, po, 175 mg, Plasma concentration, […]; individual subject; single 175 mg oral [14C]-XL184 (100 μCi), healthy male subjects; radio-quantitative method

{"MOLECULE": "COc1cc2nccc(Oc3ccc(NC(=O)C4(C(=O)Nc5ccc(F)cc5)CC4)cc3)c2cc1OC [XL184]", "UNIT OF MEASURE": "ng/mL", "concentration at 72 h": 101}

###

CONDITION SUMMARY: male, human, in vivo

{"COMPOUND": "COc1cc2nccc(Oc3ccc(NC(=O)C4(C(=O)Nc5ccc(F)cc5)CC4)cc3)c2cc1OC [XL184]", "kel of total radioactivity (h⁻¹)": 0.00308}

###

PROTOCOL SUMMARY: clinical
CONDITION SUMMARY: male, human, in vivo, po, 175 mg, AUC0-72

{"QUERY SMILES": "COc1cc2nccc(Oc3ccc(NC(=O)C4(C(=O)Nc5ccc(F)cc5)CC4)cc3)c2cc1OC", "AUC0-t / ng·h/mL": 46800}

###

PROTOCOL SUMMARY: Plasma pharmacokinetics of XL184 and metabolites by radio-quantitative method
CONDITION SUMMARY: human, in vivo, po, 175 mg, Plasma concentration, 336.00 h; individual subject; single 175 mg oral [14C]-XL184 (100 μCi), healthy male subjects; radio-quantitative method
Method: Samples for 2 subjects were used for the investigation study. Therefore, only 6 subjects' PK profiles were determined using a radio-quantitation method.

{"QUERY SMILES": "COc1cc2nccc(Oc3ccc(NC(=O)C4(C(=O)Nc5ccc(F)cc5)CC4)cc3)c2cc1OC", "UNIT OF MEASURE": "ng/mL", "concentration at 336 h": 10.3}

###

PROTOCOL SUMMARY: Plasma pharmacokinetics of XL184 and metabolites by radio-quantitative method
CONDITION SUMMARY: male, human, in vivo, po, 175 mg, Plasma concentration, […]; Median, N=6; single 175 mg oral [14C]-XL184 (100 μCi), healthy male subjects; radio-quantitative method
ENDPOINT NAME: concentration at 72 h (ng/mL)

{"MOLECULE": "COc1cc2nccc(Oc3ccc(NC(=O)C4(C(=O)Nc5ccc(F)cc5)CC4)cc3)c2cc1OC [XL184]", "ENDPOINT NAME": "concentration at 72 h", "UNIT OF MEASURE": "ng/mL", "REPORTED": 162}

###

PROTOCOL SUMMARY: Plasma pharmacokinetics of XL184 and metabolites by LC/MS/MS method
CONDITION SUMMARY: human, in vivo, po, 175 mg, Plasma concentration of XL184 by LC/MS/MS, single 175 mg oral XL184 L-malate, healthy male subjects, […], individual subject

{"COMPOUND": "COc1cc2nccc(Oc3ccc(NC(=O)C4(C(=O)Nc5ccc(F)cc5)CC4)cc3)c2cc1OC [XL184]", "concentration at 120 h, ng/mL": 156}

###

PROTOCOL SUMMARY: clinical
CONDITION SUMMARY: male, human, in vivo, Tmax
ENDPOINT NAME: Tmax

{"QUERY SMILES": "COc1cc2nccc(Oc3ccc(NC(=O)C4(C(=O)Nc5ccc(F)cc5)CC4)cc3)c2cc1OC", "REPORTED": "~1.99 h"}

###

PROTOCOL SUMMARY: clinical
CONDITION SUMMARY: human, in vivo
Where a name gives a salt, the structure may show the parent alone.
ENDPOINT NAME: AUC0-72 (h · ngEq/mL)

{"MOLECULE": "COc1cc2nccc(Oc3ccc(NC(=O)C4(C(=O)O)CC4)cc3)c2cc1OS(=O)(=O)O [6-Demethyl Half-Dimer Sulfate]", "UNIT OF MEASURE": "h · ngEq/mL", "REPORTED": 17400}
{"MOLECULE": "COc1cc2nccc(Oc3ccc(NC(=O)C4(C(=O)O)CC4)cc3)c2cc1OC", "UNIT OF MEASURE": "h · ngEq/mL", "REPORTED": 8680}
{"MOLECULE": "COc1cc2nccc(Oc3ccc(NC(=O)C4(C(=O)Nc5ccc(F)cc5)CC4)cc3)c2cc1OC", "UNIT OF MEASURE": "h · ngEq/mL", "REPORTED": 23800}
{"MOLECULE": "COc1cc2c(Oc3ccc(NC(=O)C4(C(=O)Nc5ccc(F)cc5)CC4)cc3)cc[n+]([O-])c2cc1OC [XL184-N-Oxide]", "UNIT OF MEASURE": "h · ngEq/mL", "REPORTED": 10600}

###

PROTOCOL SUMMARY: clinical
CONDITION SUMMARY: human, in vivo
Counter-ions that a name gives are not always drawn.
# maps each entry to its AUC0-24

{"COMPOUND": "COc1cc2nccc(Oc3ccc(NC(=O)C4(C(=O)O)CC4)cc3)c2cc1OC", "AUC0-24": "3610 ± 1350 h · ngEq/mL"}
{"COMPOUND": "COc1cc2nccc(Oc3ccc(NC(=O)C4(C(=O)Nc5ccc(F)cc5)CC4)cc3)c2cc1OC", "AUC0-24": "10700 ± 3170 h · ngEq/mL"}
{"COMPOUND": "COc1cc2c(Oc3ccc(NC(=O)C4(C(=O)Nc5ccc(F)cc5)CC4)cc3)cc[n+]([O-])c2cc1OC [XL184-N-Oxide]", "AUC0-24": "4300 ± 1460 h · ngEq/mL"}
{"COMPOUND": "COc1cc2nccc(Oc3ccc(NC(=O)C4(C(=O)O)CC4)cc3)c2cc1OS(=O)(=O)O [6-Demethyl Half-Dimer Sulfate]", "AUC0-24": "2520 ± 1370 h · ngEq/mL"}

###

PROTOCOL SUMMARY: Plasma pharmacokinetics of XL184 and metabolites by LC/MS/MS method
CONDITION SUMMARY: human, in vivo, po, 175 mg, Plasma Concentrations of XL184 by LC/MS/MS Method, 14.00 h; single 175 mg oral dose; individual subjects
ENDPOINT NAME: concentration at 14 h (ng/mL)

{"MOLECULE": "COc1cc2nccc(Oc3ccc(NC(=O)C4(C(=O)Nc5ccc(F)cc5)CC4)cc3)c2cc1OC [XL184]", "ENDPOINT NAME": "concentration at 14 h", "REPORTED": 488}

###

PROTOCOL SUMMARY: clinical
CONDITION SUMMARY: male, human, in vivo, po, 175 mg, Cmax

{"QUERY SMILES": "COc1cc2nccc(Oc3ccc(NC(=O)C4(C(=O)Nc5ccc(F)cc5)CC4)cc3)c2cc1OC", "Cmax (ng/mL)": 1250}

###

PROTOCOL SUMMARY: clinical
CONDITION SUMMARY: male, human, in vivo, Tmax
Experimental: Pharmacokinetics: Serial blood, urine, and feces were collected at specified times following dosing. All samples collected for radioactivity analysis were analyzed for total radioactivity. Detailed reports of the bioanalytical methodologies and results accompany the clinical study report. The other minor metabolite in plasma, p-Fluoroaniline, was analyzed by Exelixis using a validated LC/MS/MS method. PK variables were computed using WinNonlin Professional, version 5.2.

{"QUERY SMILES": "COc1cc2nccc(Oc3ccc(NC(=O)C4(C(=O)Nc5ccc(F)cc5)CC4)cc3)c2cc1OC", "Tmax": "~1.49 h"}
